Ki listing for selected molecules.
# targetSystem: Bromodomain-containing protein 3 (Homo sapiens)
# Sequence (Q15059 whole entry): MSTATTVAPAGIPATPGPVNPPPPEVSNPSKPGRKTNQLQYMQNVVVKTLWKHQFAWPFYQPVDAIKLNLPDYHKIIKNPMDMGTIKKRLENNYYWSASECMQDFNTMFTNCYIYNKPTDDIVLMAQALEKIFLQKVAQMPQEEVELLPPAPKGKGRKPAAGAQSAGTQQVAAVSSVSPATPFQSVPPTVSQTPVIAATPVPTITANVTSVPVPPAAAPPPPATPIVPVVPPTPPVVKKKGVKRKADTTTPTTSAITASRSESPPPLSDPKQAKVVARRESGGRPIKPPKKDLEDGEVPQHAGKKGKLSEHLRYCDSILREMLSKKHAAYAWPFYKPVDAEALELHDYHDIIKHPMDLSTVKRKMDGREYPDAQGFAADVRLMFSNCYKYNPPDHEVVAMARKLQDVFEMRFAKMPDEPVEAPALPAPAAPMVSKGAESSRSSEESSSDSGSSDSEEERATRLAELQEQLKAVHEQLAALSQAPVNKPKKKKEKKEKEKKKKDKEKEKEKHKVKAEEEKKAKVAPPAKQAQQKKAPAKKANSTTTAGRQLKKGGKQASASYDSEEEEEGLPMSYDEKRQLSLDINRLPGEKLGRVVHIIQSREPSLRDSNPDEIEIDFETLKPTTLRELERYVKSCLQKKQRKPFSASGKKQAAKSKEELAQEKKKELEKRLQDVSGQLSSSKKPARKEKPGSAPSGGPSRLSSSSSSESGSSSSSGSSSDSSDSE
# measurementNotes: FP Competitive Binding Assay (No.350): Fluorescence Polarization (FP) competitive binding studies (see above) were carried out using the FAM labeled fluorescent probe Cpd. No. 350 to determine binding affinities of representative compounds to both BD1 and BD2 of BRD2, BRD3, and BRD4 proteins. Equilibrium dissociation constants (Id) values of Cpd. […] Final Cpd. […] Kd values of Cpd.
Respond with the bare value in nM.

[Q] Could you share which Ki value was measured for `COc1cc2c(cc1-c1c(C)noc1C)[nH]c1nc(C)nc(-c3ccc(NC(=O)N4CCN(C5COC5)CC4)c4ccccc34)c12` ?
[A] 23

[Q] Could you share which Ki value was measured for `COc1cc2c(cc1-c1c(C)noc1C)[nH]c1nc(C)nc(-c3cc(C(=O)NC4CCN(C)CC4)cc(C(C)(C)C)c3)c12` ?
[A] 6.3

[Q] Could you share which Ki value was measured for `COc1cc2c(cc1-c1c(C)noc1C)[nH]c1nc(C)nc(-c3ccc(NC(=O)N4CCN(C)CC4)c4ccccc34)c12` ?
[A] 7.5
